Property: microsomal CLint at 1 uM; scope: individual molecules
Test: Metabolic stability in human hepatic microsome
Assay type: in vitro ADME
Settings: microsomes, pH 7.4; human hepatic microsome, NADPH(+); read-out: CL NADPH(+)
Positions of bridges follow the written chain, without caps; N, C: chain ends. Non-standard residues stand in square brackets, D forms with d. Residues, ends and D or L forms follow the SMILES beside them. *: point of attachment. NMeF = CN[C@@H](Cc1ccccc1)C(=O)O; NMeL = CN[C@@H](CC(C)C)C(=O)O; NMeV = CN[C@H](C(=O)O)C(C)C; NMeA = CN[C@@H](C)C(=O)O; Piperidide = C1CCN(*)CC1; dNMeA = CN[C@H](C)C(=O)O; Sar = CNCC(=O)O
Parameter: microsomal CLint at 1 uM

* CC(C)C[C@H]1C(=O)N(C)[C@@H](Cc2ccccc2)C(=O)NCC(=O)N(C)[C@@H](Cc2ccccc2)C(=O)N(C)[C@@H](C)C(=O)N[C@@H]([C@@H](C)O)C(=O)N[C@H](C(=O)N(C)[C@@H](Cc2ccccc2)C(=O)N(C)[C@@H](Cc2ccccc2)C(=O)N[C@@H](C)C(=O)N2CCCCC2)CC(=O)N(C)[C@H](C)C(=O)N[C@@H](C(C)C)C(=O)N1C [DP-213] ([dNMeA]V[NMeL][NMeF]G[NMeF][NMeA]TD[NMeF][NMeF]A-Piperidide; lactam N-9) | 71 µL/min/mg
* CC[C@H](C)[C@@H]1NC(=O)[C@H](Cc2ccccc2)N(C)C(=O)[C@H](CC(C)C)N(C)C(=O)[C@H](Cc2ccccc2)NC(=O)[C@H](C)N(C)C(=O)[C@H]([C@@H](C)O)NC(=O)[C@@H](C)N(C)C(=O)C[C@@H](C(=O)N2CCCCC2)NC(=O)[C@H](CC(C)C)N(C)C(=O)[C@H](C(C)C)N(C)C1=O [DP-434] ([dNMeA]T[NMeA]F[NMeL][NMeF]I[NMeV][NMeL]D-Piperidide; lactam N-10) | 166 µL/min/mg
* CC(C)C[C@H]1C(=O)N[C@@H](C(C)C)C(=O)N[C@H](C(=O)N(C)[C@@H](Cc2ccccc2)C(=O)N(C)[C@@H](Cc2ccccc2)C(=O)N[C@@H](C)C(=O)N2CCCCC2)CC(=O)N(C)CC(=O)N(C)[C@@H](CC(C)C)C(=O)N(C)[C@@H](Cc2ccccc2)C(=O)N[C@@H]([C@@H](C)O)C(=O)N(C)[C@@H](C)C(=O)N(C)CC(=O)N1C [DP-407] ([Sar][NMeL][NMeF]T[NMeA][Sar][NMeL]VD[NMeF][NMeF]A-Piperidide; lactam N-9) | 29 µL/min/mg
